Test system: HCMV
Experiment: Anti-HCMV cytopathogenicity test
Assay type: cell-based, human cytomegalovirus
Conditions: Human betaherpesvirus 5, NHDF, 144 h, read-out: HCMV EC50
Where a name gives a salt, the structure may show the parent alone.
assay-endpoint: pEC50
Answers are plain numbers, as −log10 of the molar value.

Under HCMV, report pEC50 for O=C(O)CC1c2ccccc2N=C(N2CCN(c3ccc(F)cc3)CC2)N1c1cc(C(F)(F)F)ccc1F (stereo not shown) [Example 2, hydrochloride] 7.22

====

Assay: Anti-HCMV cytopathogenicity test: cytostatic effects on NHDF cells
Format: cell-based
Conditions: NHDF cells (human prepuce fibroblasts), 6 days incubation, visual assessment, concentration at which no visible cytostatic effects are evident vs untreated cell control
Structures can show the parent of a compound that is named as a salt.
assay-endpoint: CC50 at 6 days (µM)
Give bare numbers, in µM.

Example entries and their recorded answers appear below.
Query CC50 at 6 days for Cc1cc(Cl)ccc1N1C(N2CCN(c3cccc(Cl)c3)CC2)=Nc2ccccc2C1CC(=O)O (centres unmarked) 22

Query CC50 at 6 days for COc1cccc(N2CCN(C3=Nc4ccccc4C(CC(=O)O)N3c3cccc(C#N)c3)CC2)c1 (centres unmarked) 188

Query CC50 at 6 days for Cc1cc(N2CCN(C3=Nc4ccccc4C(CC(=O)O)N3c3cccc(C(F)(F)F)c3)CC2)ccc1F (centres unmarked) 17

Query CC50 at 6 days for COc1cccc(N2CCN(C3=Nc4ccccc4C(CC(=O)O)N3c3cc(Cl)ccc3OC)CC2)c1 (centres unmarked) 63

Below are 5 compounds. Give each one its CC50 at 6 days.
1. O=C(O)CC1c2ccccc2N=C(N2CCN(c3ccc(F)cc3)CC2)N1c1cc(C(F)(F)F)ccc1F (centres unmarked) [Example 2, hydrochloride]
2. O=C(O)CC1c2ccccc2N=C(N2CCN(c3cccc(Cl)c3)CC2)N1c1ccc(F)c(Cl)c1 (centres unmarked)
3. COc1ccc(C)cc1N1C(N2CCN(c3cccc(Cl)c3)CC2)=Nc2ccccc2C1CC(=O)O (centres unmarked)
4. COc1ccc(C(F)(F)F)cc1N1C(N2CCN(c3cccc(Cl)c3)CC2)=Nc2ccccc2C1CC(=O)O (centres unmarked)
5. COc1ccc(Cl)cc1N1C(N2CCN(c3ccc(F)cc3)CC2)=Nc2ccccc2C1CC(=O)O (centres unmarked)

1: 39; 2: 24; 3: 63; 4: 31; 5: 125

Below are 2 compounds. Give each one its CC50 at 6 days.
1. COc1ccc(C(F)(F)F)cc1N1C(N2CCN(c3cccc(C)c3)CC2)=Nc2ccccc2C1CC(=O)O (centres unmarked)
2. COc1ccc(C)cc1N1C(N2CCN(c3cccc(C)c3)CC2)=Nc2ccccc2C1CC(=O)O (centres unmarked)

1: 188; 2: 250
